testTarget: T1, interleukin 18 binding protein (IL-18BP) (UniProt O95998 31-194)
T1 sequence (looked up): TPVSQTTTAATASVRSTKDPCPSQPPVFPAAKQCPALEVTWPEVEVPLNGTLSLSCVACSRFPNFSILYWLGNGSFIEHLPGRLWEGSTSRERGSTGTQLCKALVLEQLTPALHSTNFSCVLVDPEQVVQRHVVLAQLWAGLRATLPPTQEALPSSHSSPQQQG
assay: cell-based or functional assay
Hi all, reminder that labels come from Ratio (-BP/+BP), DF-1,000,000, split as c1: < 0.9; c2: ≥ 0.9 and < 1; c3: ≥ 1

binder	class
IL-18 variant T34E, S36P, D40A, N41G, K53T, S55R (ligand) YFGKLESKLSVIRNLNDQVLFIDQGNRPLFEDMEDPDMRAGAPRTIFIISMYTDRQPRGMAVTISVKSEKISTLSSENKIISFKEMNPPDNIKDTKSDIIFFQRSVPGHDNKMQFESSSYEGYFLASEKERDLFKLILKKEDELGDRSIMFTVQNED	c2
IL-18 variant K53G, S55I, R104K, P107Y (ligand) YFGKLESKLSVIRNLNDQVLFIDQGNRPLFEDMTDSDMRDNAPRTIFIISMYGDIQPRGMAVTISVKSEKISTLSSENKIISFKEMNPPDNIKDTKSDIIFFQKSVYGHDNKMQFESSSYEGYFLASEKERDLFKLILKKEDELGDRSIMFTVQNED	c2
IL-18 variant K53Y, S55G, Q56H (ligand) YFGKLESKLSVIRNLNDQVLFIDQGNRPLFEDMTDSDMRDNAPRTIFIISMYYDGHPRGMAVTISVKSEKISTLSSENKIISFKEMNPPDNIKDTKSDIIFFQRSVPGHDNKMQFESSSYEGYFLASEKERDLFKLILKKEDELGDRSIMFTVQNED	c1
IL-18 variant K53S, S55Y, P107M (ligand) YFGKLESKLSVIRNLNDQVLFIDQGNRPLFEDMTDSDMRDNAPRTIFIISMYSDYQPRGMAVTISVKSEKISTLSSENKIISFKEMNPPDNIKDTKSDIIFFQRSVMGHDNKMQFESSSYEGYFLASEKERDLFKLILKKEDELGDRSIMFTVQNED	c1
IL-18 variant K53H, S55M (ligand) YFGKLESKLSVIRNLNDQVLFIDQGNRPLFEDMTDSDMRDNAPRTIFIISMYHDMQPRGMAVTISVKSEKISTLSSENKIISFKEMNPPDNIKDTKSDIIFFQRSVPGHDNKMQFESSSYEGYFLASEKERDLFKLILKKEDELGDRSIMFTVQNED	c3
IL-18 variant T34N, S36Y, D40H, N41T, K53G, S55Y (ligand) YFGKLESKLSVIRNLNDQVLFIDQGNRPLFEDMNDYDMRHTAPRTIFIISMYGDYQPRGMAVTISVKSEKISTLSSENKIISFKEMNPPDNIKDTKSDIIFFQRSVPGHDNKMQFESSSYEGYFLASEKERDLFKLILKKEDELGDRSIMFTVQNED	c2
IL-18 variant K53Y, S55Y, Q56H (ligand) YFGKLESKLSVIRNLNDQVLFIDQGNRPLFEDMTDSDMRDNAPRTIFIISMYYDYHPRGMAVTISVKSEKISTLSSENKIISFKEMNPPDNIKDTKSDIIFFQRSVPGHDNKMQFESSSYEGYFLASEKERDLFKLILKKEDELGDRSIMFTVQNED	c1
IL-18 variant K53D, S55Q, H109Y (ligand) YFGKLESKLSVIRNLNDQVLFIDQGNRPLFEDMTDSDMRDNAPRTIFIISMYDDQQPRGMAVTISVKSEKISTLSSENKIISFKEMNPPDNIKDTKSDIIFFQRSVPGYDNKMQFESSSYEGYFLASEKERDLFKLILKKEDELGDRSIMFTVQNED	c3
IL-18 variant K53H, S55Y, Q56H (ligand) YFGKLESKLSVIRNLNDQVLFIDQGNRPLFEDMTDSDMRDNAPRTIFIISMYHDYHPRGMAVTISVKSEKISTLSSENKIISFKEMNPPDNIKDTKSDIIFFQRSVPGHDNKMQFESSSYEGYFLASEKERDLFKLILKKEDELGDRSIMFTVQNED	c2
IL-18 variant T34S, S36Y, D37N, D40E, N41Q, K53Y, S55I (ligand) YFGKLESKLSVIRNLNDQVLFIDQGNRPLFEDMSDYNMREQAPRTIFIISMYYDIQPRGMAVTISVKSEKISTLSSENKIISFKEMNPPDNIKDTKSDIIFFQRSVPGHDNKMQFESSSYEGYFLASEKERDLFKLILKKEDELGDRSIMFTVQNED	c1
IL-18 variant K53D, S55E (ligand) YFGKLESKLSVIRNLNDQVLFIDQGNRPLFEDMTDSDMRDNAPRTIFIISMYDDEQPRGMAVTISVKSEKISTLSSENKIISFKEMNPPDNIKDTKSDIIFFQRSVPGHDNKMQFESSSYEGYFLASEKERDLFKLILKKEDELGDRSIMFTVQNED	c3
